Test system: human HL60 cells
Assay: SWATH-MS proteomics, differential protein representation, akirin2 KO vs WT HL60 cells
Assay type: cell-based
Conditions: SWATH-MS, akirin2 KO vs WT HL60 cells, under-represented in KO
Recorded Fold Change, one value per entry.
Number only, no unit.

Molecule	Fold Change
sp¦Q99496¦RING2_HUMAN (protein, UniProt Q99496 2-336, looked up) E3 ubiquitin-protein ligase …: SQAVQTNGTQPLSKTWELSLYELQRTPQEAITDGLEIVVSPRSLHSELMCPICLDMLKNTMTTKECLHRFCADCIITALRSGNKECPTCRKKLVSKRSLRPDPNFDALISKIYPSRDEYEAHQERVLARINKHNNQQALSHSIEEGLKIQAMNRLQRGKKQQIENGSGAEDNGDSSHCSNASTHSNQEAGPSNKRTKTSDDSGLELDNNNAAMAIDPVMDGASEIELVFRPHPTLMEKDDSAQTRYIKTSGNATVDHLSKYLAVRLALEELRSKGESNQMNLDTASEKQYTIYIATASGQFTVLNGSFSLELVSEKYWKVNKPMELYYAPTKEHK	0.6992
sp¦P61009¦SPCS3_HUMAN (protein, UniProt P61009 1-180, looked up) Signal peptidase complex …: MNTVLSRANSLFAFSLSVMAALTFGCFITTAFKDRSVPVRLHVSRIMLKNVEDFTGPRERSDLGFITFDITADLENIFDWNVKQLFLYLSAEYSTKNNALNQVVLWDKIVLRGDNPKLLLKDMKTKYFFFDDGNGLKGNRNVTLTLSWNVVPNAGILPLVTGSGHVSVPFPDTYEITKSY	0.6925
sp¦O15173¦PGRC2_HUMAN (protein, UniProt O15173 1-223, looked up) Membrane-associated …: MAAGDGDVKLGTLGSGSESSNDGGSESPGDAGAAAEGGGWAAAALALLTGGGEMLLNVALVALVLLGAYRLWVRWGRRGLGAGAGAGEESPATSLPRMKKRDFSLEQLRQYDGSRNPRILLAVNGKVFDVTKGSKFYGPAGPYGIFAGRDASRGLATFCLDKDALRDEYDDLSDLNAVQMESVREWEMQFKEKYDYVGRLLKPGEEPSEYTDEEDTKDHNKQD	0.7369
sp¦Q9H3N1¦TMX1_HUMAN (protein, UniProt Q9H3N1 27-280, looked up) Thioredoxin-related …: RRSNVRVITDENWRELLEGDWMIEFYAPWCPACQNLQPEWESFAEWGEDLEVNIAKVDVTEQPGLSGRFIITALPTIYHCKDGEFRRYQGPRTKKDFINFISDKEWKSIEPVSSWFGPGSVLMSSMSALFQLSMWIRTCHNYFIEDLGLPVWGSYTVFALATLFSGLLLGLCMIFVADCLCPSKRRRPQPYPYPSKKLLSESAQPLKKVEEEQEADEEDVSEEEAESKEGTNKDFPQNAIRQRSLGPSLATDKS	0.7331
sp¦P11177¦ODPB_HUMAN (protein, UniProt P11177 31-359, looked up) Pyruvate dehydrogenase E1 …: LQVTVRDAINQGMDEELERDEKVFLLGEEVAQYDGAYKVSRGLWKKYGDKRIIDTPISEMGFAGIAVGAAMAGLRPICEFMTFNFSMQAIDQVINSAAKTYYMSGGLQPVPIVFRGPNGASAGVAAQHSQCFAAWYGHCPGLKVVSPWNSEDAKGLIKSAIRDNNPVVVLENELMYGVPFEFPPEAQSKDFLIPIGKAKIERQGTHITVVSHSRPVGHCLEAAAVLSKEGVECEVINMRTIRPMDMETIEASVMKTNHLVTVEGGWPQFGVGAEICARIMEGPAFNFLDAPAVRVTGADVPMPYAKILEDNSIPQVKDIIFAIKKTLNI	0.7344

Challenge: Could you share which Fold Change value was measured for sp¦Q9UFN0¦NPS3A_HUMAN (protein, UniProt Q9UFN0 1-247, looked up) Protein NipSnap homolog 3A: MLVLRSALTRALASRTLAPQMCSSFATGPRQYDGIFYEFRSYYLKPSKMNEFLENFEKNAHLRTAHSELVGYWSVEFGGRMNTVFHIWKYDNFAHRTEVRKALAKDKEWQEQFLIPNLALIDKQESEITYLVPWCKLEKPPKEGVYELATFQMKPGGPALWGDAFKRAVHAHVNLGYTKLVGVFHTEYGALNRVHVLWWNESADSRAAGRHKSHEDPRVVAAVRESVNYLVSQQNMLLIPTSFSPLK ?
Response given: 0.7109
